Target: MSI1 full-length (mouse, UniProt Q61474 1-362)
Sequence (Q61474 whole entry): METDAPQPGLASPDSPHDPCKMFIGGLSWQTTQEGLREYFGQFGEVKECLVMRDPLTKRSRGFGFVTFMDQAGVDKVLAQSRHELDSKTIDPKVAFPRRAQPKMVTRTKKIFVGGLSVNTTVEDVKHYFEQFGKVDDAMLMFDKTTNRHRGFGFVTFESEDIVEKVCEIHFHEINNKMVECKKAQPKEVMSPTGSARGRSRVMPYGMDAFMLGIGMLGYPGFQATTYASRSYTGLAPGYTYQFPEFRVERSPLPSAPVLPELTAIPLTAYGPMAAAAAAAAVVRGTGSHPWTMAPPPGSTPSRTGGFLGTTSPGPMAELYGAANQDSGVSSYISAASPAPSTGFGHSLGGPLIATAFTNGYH
Assay: nsRBNS (natural sequence RNA bind-n-seq); RBNS binding buffer (assumed for nsRBNS): 25 mM Tris pH 7.5, 150 mM KCl, 3 mM MgCl2, 0.01% Triton X-100, 500 ug/ml BSA, 20 U/ml SUPERase-In, 4 C; UNK is unkempt and MSI1 is Musashi-1; names of the RNAs are library labels; protein concentration not given here; high values mean tight binding
Whole data set: some 5,800 sequences, median “enrichment r” near 0.54, cut for the highest 2% near 16. For the sample, the highest values were picked, then their nearest neighbours and some sequences at random.
What binding signal was measured for each of the following?
Note to self: number, then unit, no commentary.

Item ENSG00000107021:stop:overlap|stop_codon|ENSG00000107021|stop_codon|NA|stop_codon (ssRNA) RNA: GGGAGUUCUACAGUCCGACGAUCACCCCAUCACAGAUGUCUGCCAGAUCCUGCAGAAAGCCAAGGAGCUCCAAGACUCAAAGUAGCCCGGCGGCAAGAGGCCCAUGUUCCGGAGAGAAGCCUCCCGACCCUGUGCCCUGGCUCCAACAGAGGAUUGAGCAUCA has what recorded binding signal? 0.38 enrichment R

So what's the measured binding signal for this one? chr8:42175503:42175666:-|3pUTR|ENSG00000104368|msi1|total|mutant (ssRNA) RNA: GGGAGUUCUACAGUCCGACGAUCAUGAAAGCAUGUCUCAACCGUAAAAGAUAACAAGAUCUUUCAGGAAAGACGGAUUGCAUCCGAAACCGACAGUAUAUUUACCGUCACAAGAGCCCAGCAGGGCCUCAAAGUUGGGGCAGGCAACAGAGGAUUGAGCAUCA 0.44 enrichment R

Which binding signal value belongs to chr6:117694021:117694122:+|CDS|ENSG00000153989|msi1|FALSE|unique (ssRNA) RNA: GGGAGUUCUACAGUCCGACGAUCGCUGUCUCCGGAAGAUGGAAAAGCAGAUAUUGUAAGAGCUGCUCAGGACUUUUGCCAGUUAGUAGCCCAGAAGCAAAAGAGACCCACAGAUUUGGAUGUAGAUACGUUAGCCAGUUUACUCAACAGAGGAUUGAGCAUCA ? 17.5 enrichment R

Given the binder chr6:31137533:31137950:-|three_prime_utr|ENSG00000204538|control|control|control (ssRNA) RNA: GGGAGUUCUACAGUCCGACGAUCGCAUCUCCAGGCACCCACGCCCUCUCCACCCUCUGAUUCCCCGUGAAUUCUUCCCAAUUUAGCCUGUCUCCUUAAACCUCUUCCUCAUUCCCUCGGUUUUAUUCUGAACCCGUAAGGUGGCAACAGAGGAUUGAGCAUCA , what is its reported binding signal? 0.944 enrichment R

State the recorded binding signal for this entry: chr12:123662440:123662541:+|3pUTR|ENSG00000111358|unk|FALSE|unique (ssRNA) RNA: GGGAGUUCUACAGUCCGACGAUCAAUGGAAAUCACAAUUUUAAGUCUAGGAAAUAAAGUAUUAUAUAUACUUUCAAACAAGCUAGCAAGGCUUUUAUUAUUACUUUUUUAUUUGAAAUAUCUUAUAUAUUUGGUUAGUUCUGUCAACAGAGGAUUGAGCAUCA 12.8 enrichment R

Query: binding signal; subject: chr1:223774945:223775046:+|3pUTR|ENSG00000162909|msi1|total|mutant (ssRNA) RNA: GGGAGUUCUACAGUCCGACGAUCAAAUACACUUUGUAUCUGGACCUCAAAAUUAUGGGAACAUUUACUUAAACGGAUGAUCACCGCUGAAAAUAAUGAUACUGUCAAUUUGAGACCGCAGAAGUUUCACACAUCAAAGUAAAACAACAGAGGAUUGAGCAUCA 0.211 enrichment R

Look up binding signal: ENSG00000198589:be:win_3051|CDS|ENSG00000198589|bound_else_gene|NA|bound_elsewhere_windowed (ssRNA) RNA: GGGAGUUCUACAGUCCGACGAUCAGAAAUGAAAGCUGAGCAAGAAAAUCAGGAGUUACCAGAUGAAGGCACUUUGGAAGAAACACUGACAAAUGAGACAAGGAAUGCAGAUGAUUUAGAAGUAUCUUCUGACAUAAUAGAAGCCAACAGAGGAUUGAGCAUCA 0.825 enrichment R
